This collection of values is drawn from ChEMBL document CHEMBL1124839.

# measured_on: Serotonin 3 (5-HT3) receptor (Rattus norvegicus) (UniProt P35563+Q9JJ16)
# assay_explanation: In vivo 5-hydroxytryptamine 3 receptor (5-HT 3 receptor) antagonistic activity expressed as ability to inhibit Bezold-Jarich reflex evoked by 5-HT in rats
# Format: functional, organism-based
API: label(entry) gives yes if the entry's ID50 is strictly smaller than 5 µg/kg; on equality or larger values it gives no.

CN(C)C(=O)c1ccccc1NC(=O)NC1CC2CCC(C1)N2C (configuration not stated) = no
CCOC(=O)c1ccccc1NC(=O)NC1CC2CCC(C1)N2C (configuration not stated) = no
CN1C2CCC1CC(NC(=O)Nc1ccccc1OC(C)(C)C)C2 (configuration not stated) = no
CCOc1ccccc1NC(=O)NC1CC2CCC(C1)N2C (configuration not stated) = yes

Please state whether ID50 is below 5 µg/kg for CCCOc1ccccc1NC(=O)NC1CC2CCC(C1)N2C (configuration not stated)
no

Please state whether ID50 is below 5 µg/kg for COc1ccc([N+](=O)[O-])cc1NC(=O)NC1CC2CCC(C1)N2C (configuration not stated)
no

Please state whether ID50 is below 5 µg/kg for CN1C2CCC1CC(NC(=O)Nc1ccccc1O)C2 (configuration not stated)
no

Please state whether ID50 is below 5 µg/kg for CN1C2CCC1CC(NC(=O)Nc1ccccc1OCc1ccccc1)C2 (configuration not stated)
no

Please state whether ID50 is below 5 µg/kg for CSc1ccccc1NC(=O)NC1CC2CCC(C1)N2C (configuration not stated)
no

Please state whether ID50 is below 5 µg/kg for COC(=O)c1ccccc1NC(=O)NC1CC2CCC(C1)N2C (configuration not stated)
yes

Please state whether ID50 is below 5 µg/kg for COc1cc(F)ccc1NC(=O)NC1CC2CCC(C1)N2C (configuration not stated)
no

Please state whether ID50 is below 5 µg/kg for COc1ccccc1NC(=O)OC1CC2CCC(C1)N2C (configuration not stated)
yes

Please state whether ID50 is below 5 µg/kg for CCCCOc1ccccc1NC(=O)NC1CC2CCC(C1)N2C (configuration not stated)
no

Please state whether ID50 is below 5 µg/kg for COc1ccc(O)cc1NC(=O)NC1CC2CCC(C1)N2C (configuration not stated)
no

Please state whether ID50 is below 5 µg/kg for CCC(C)Oc1ccccc1NC(=O)NC1CC2CCC(C1)N2C (configuration not stated)
yes

Please state whether ID50 is below 5 µg/kg for COCc1ccccc1NC(=O)NC1CC2CCC(C1)N2C (configuration not stated)
no

----------
# measured_on: Serotonin 3 (5-HT3) receptor (Rattus norvegicus) (UniProt P35563+Q9JJ16)
# assay_explanation: In vivo 5-hydroxytryptamine 3 receptor (5-HT 3 receptor) antagonistic activity expressed as ability to inhibit Bezold-Jarich reflex evoked by 5-HT in rats
# Format: functional, organism-based
API: label(entry) gives Criterion met if the entry's ID50 is strictly smaller than 3 µg/kg; on equality or larger values it gives Criterion not met.

Solved entries:
COc1ccccc1NC(=O)NC1CC2CCCC(C1)N2C (stereo in doubt; 6c) = Criterion not met
COc1ccccc1NC(=O)NC1CC2CCC(C1)N2C (stereo unspecified) = Criterion met
COc1ccc(NC(=O)NC2CC3CCC(C2)N3C)c(OC)c1 (stereo unspecified) = Criterion not met

Please state whether ID50 is below 3 µg/kg for COc1ccc(F)cc1NC(=O)NC1CC2CCC(C1)N2C (stereo unspecified)
Criterion not met

Please state whether ID50 is below 3 µg/kg for CN1C2CCC1CC(NC(=O)Nc1ccccc1S(=O)(=O)N(C)C)C2 (stereo unspecified)
Criterion met

Please state whether ID50 is below 3 µg/kg for COc1ccccc1NC(=O)NC1CC2CCCC(C1)N2C (stereo in doubt; 11c)
Criterion not met

Please state whether ID50 is below 3 µg/kg for COc1ccc(C)cc1NC(=O)NC1CC2CCC(C1)N2C (stereo unspecified)
Criterion not met

Please state whether ID50 is below 3 µg/kg for C=CCOc1ccccc1NC(=O)NC1CC2CCC(C1)N2C (stereo unspecified)
Criterion met

Please state whether ID50 is below 3 µg/kg for CC(C)Oc1ccccc1NC(=O)NC1CC2CCC(C1)N2C (stereo unspecified)
Criterion not met

Please state whether ID50 is below 3 µg/kg for CN1C2CCC1CC(NC(=O)Nc1ccccc1Oc1ccccc1)C2 (stereo unspecified)
Criterion not met

Please state whether ID50 is below 3 µg/kg for COc1ccc(OC)c(NC(=O)NC2CC3CCC(C2)N3C)c1 (stereo unspecified)
Criterion not met
